ASSAY NAME: qHTS assay for identifying genotoxic compounds that show differential cytotoxicity against isogenic chicken DT40 cell lines with known DNA damage response pathways - Rad54/Ku70 mutant cell line (AID 743015); further: nearly all actives have a fitted effect of over 60% in size
MEASUREMENT SETUP: DT40 Rad54/Ku70 mutant viability, CellTiter-Glo, 40 h; series mostly up to 66.8 µM
Inconclusive results are not listed. Calls of active or inactive are those of the source. The call rests on the fitted dose curve; in most records, active means well fitted cell-killing curve with a large enough effect in the repeat runs; inconclusive means weak or mixed curves; inactive means no such curve, though single readings can be large or run the other way.
Outcome field: choose from active, inactive

Hey, what did the test say about "C=CC(=O)OCCCCCC(C)C" ? inactive

Hey, what did the test say about "CNC(=O)O/N=C(\SC)C(=O)N(C)C" ? active

Hey, what did the test say about "CC(C)c1cccc(C(C)C)c1O" ? inactive

Hey, what did the test say about "Cc1cccc(C)c1N" ? inactive

Hey, what did the test say about "CNC(=O)Oc1cccc2ccccc12" ? inactive

Hey, what did the test say about "Cc1ccc(O)c(C)c1" ? inactive

Hey, what did the test say about "FC(F)(F)c1ccc(Cl)cc1" ? inactive

Hey, what did the test say about "Nc1cccc(Cl)c1" ? inactive

Hey, what did the test say about "Cc1ccc(N)cc1" ? inactive

Hey, what did the test say about "CC(=O)/C=C/c1ccccc1" ? inactive

Hey, what did the test say about "CCCCCCCCCCCCCCCCCC(=O)O" ? inactive

Hey, what did the test say about "N#Cc1cccc(C#N)c1" ? inactive

Hey, what did the test say about "Cl/C=C/Cl" ? inactive

Hey, what did the test say about CNC(=O)O/N=C/C(C)(C)S(C)=O (configuration not stated) ? inactive

Hey, what did the test say about "O=C(O)Cc1ccccc1" ? inactive

Hey, what did the test say about "COP(=S)(OC)SCN1C(=O)c2ccccc2C1=O" ? inactive

Hey, what did the test say about "Sc1ccccc1" ? inactive
